tested on: 885512-296-R-J2-PDC complex spheroid viability; experiment: Anticancer human tumor 885512-296-R-J2-PDC patient-derived breast carcinoma cell line growth inhibition [GQUAD]; conditions: second compound 0.0316 µM; first compound 3.16 µM; active compounds read low;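 note: spheroids exposed to the compounds for one week; percent of tumor spheroid viability relative to DMSO vehicle control wells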
Items are presented alongside their recorded viability, T/C.
reported.endpoint: viability, T/C (%)

[[record]]
compound = "O=c1[nH]cc(F)c(=O)[nH]1 + CN(C)c1ccc(Nc2c3ccc(NC(=O)CCN4CCCC4)cc3nc3cc(NC(=O)CCN4CCCC4)ccc23)cc1"
assay_target = "885512-296-R-J2-PDC complex spheroid viability"
endpoint_value = 58.7

[[record]]
compound = "O=C(NO)c1cnc(N2CCN(S(=O)(=O)c3ccc4ccccc4c3)CC2)nc1 + Cc1cnc(CNC(=O)c2c(=O)c3ccc(N4CCCN(C)CC4)nc3n3c2sc2ccccc23)cn1"
assay_target = "885512-296-R-J2-PDC complex spheroid viability"
endpoint_value = 0.51

[[record]]
compound = "COc1cccc2c1C(=O)c1c(O)c3c(c(O)c1C2=O)CC(O)(C(=O)CO)CC3OC1CC(N)C(O)C(C)O1 (stereo not given) + Cc1cnc(CNC(=O)c2c(=O)c3ccc(N4CCCN(C)CC4)nc3n3c2sc2ccccc23)cn1"
assay_target = "885512-296-R-J2-PDC complex spheroid viability"
endpoint_value = 0.41

[[record]]
compound = "CC1COCCN1c1cc(-c2ccnn2C)c2ccnc(-c3ccn[nH]3)c2n1 (stereo not given) + Cc1[nH]c2ccc(F)cc2c1-c1nc2c3cccnc3c3ncccc3c2[nH]1"
assay_target = "885512-296-R-J2-PDC complex spheroid viability"
endpoint_value = 4.21

[[record]]
compound = "CC(=O)O[C@H]1C(=O)[C@@]2(C)[C@H]([C@H](OC(=O)c3ccccc3)[C@]3(O)C[C@H](OC(=O)[C@H](O)[C@@H](NC(=O)c4ccccc4)c4ccccc4)C(C)=C1C3(C)C)[C@]1(OC(C)=O)CO[C@@H]1C[C@@H]2O + Cc1cnc(CNC(=O)c2c(=O)c3ccc(N4CCCN(C)CC4)nc3n3c2sc2ccccc23)cn1"
assay_target = "885512-296-R-J2-PDC complex spheroid viability"
endpoint_value = 3.52

[[record]]
compound = "C=CCn1c(=O)c2cnc(Nc3ccc(N4CCN(C)CC4)cc3)nc2n1-c1cccc(C(C)(C)O)n1 + Cc1[nH]c2ccc(F)cc2c1-c1nc2c3cccnc3c3ncccc3c2[nH]1"
assay_target = "885512-296-R-J2-PDC complex spheroid viability"
endpoint_value = 83.7

[[record]]
compound = "COc1cccc2c1C(=O)c1c(O)c3c(c(O)c1C2=O)CC(O)(C(=O)CO)CC3OC1CC(N)C(O)C(C)O1 (stereo not given) + Cc1[nH]c2ccc(F)cc2c1-c1nc2c3cccnc3c3ncccc3c2[nH]1"
assay_target = "885512-296-R-J2-PDC complex spheroid viability"
endpoint_value = 0.5

[[record]]
compound = "COc1ccc([C@@H](O)c2cc(-c3ncnc4cc(N5CCOCC5)ccc34)c(F)cc2Cl)nn1 + Cc1cnc(CNC(=O)c2c(=O)c3ccc(N4CCCN(C)CC4)nc3n3c2sc2ccccc23)cn1"
assay_target = "885512-296-R-J2-PDC complex spheroid viability"
endpoint_value = 32

[[record]]
compound = "C#Cc1c(F)ccc2cc(O)cc(-c3ncc4c(N5CC6CCC(C5)N6)nc(OCC56CCCN5CC(F)C6)nc4c3F)c12 (stereo not given) + Cc1cnc(CNC(=O)c2c(=O)c3ccc(N4CCCN(C)CC4)nc3n3c2sc2ccccc23)cn1"
assay_target = "885512-296-R-J2-PDC complex spheroid viability"
endpoint_value = 96.2

[[record]]
compound = "O=C(c1cc(Cc2n[nH]c(=O)c3ccccc23)ccc1F)N1CCN(C(=O)C2CC2)CC1 + CN(C)c1ccc(Nc2c3ccc(NC(=O)CCN4CCCC4)cc3nc3cc(NC(=O)CCN4CCCC4)ccc23)cc1"
assay_target = "885512-296-R-J2-PDC complex spheroid viability"
endpoint_value = 117


Source: PubChem BioAssay AID2060490
